assayed_target: Epidermal growth factor receptor (Homo sapiens) (UniProt P00533)
Sequence (P00533 whole entry, looked up): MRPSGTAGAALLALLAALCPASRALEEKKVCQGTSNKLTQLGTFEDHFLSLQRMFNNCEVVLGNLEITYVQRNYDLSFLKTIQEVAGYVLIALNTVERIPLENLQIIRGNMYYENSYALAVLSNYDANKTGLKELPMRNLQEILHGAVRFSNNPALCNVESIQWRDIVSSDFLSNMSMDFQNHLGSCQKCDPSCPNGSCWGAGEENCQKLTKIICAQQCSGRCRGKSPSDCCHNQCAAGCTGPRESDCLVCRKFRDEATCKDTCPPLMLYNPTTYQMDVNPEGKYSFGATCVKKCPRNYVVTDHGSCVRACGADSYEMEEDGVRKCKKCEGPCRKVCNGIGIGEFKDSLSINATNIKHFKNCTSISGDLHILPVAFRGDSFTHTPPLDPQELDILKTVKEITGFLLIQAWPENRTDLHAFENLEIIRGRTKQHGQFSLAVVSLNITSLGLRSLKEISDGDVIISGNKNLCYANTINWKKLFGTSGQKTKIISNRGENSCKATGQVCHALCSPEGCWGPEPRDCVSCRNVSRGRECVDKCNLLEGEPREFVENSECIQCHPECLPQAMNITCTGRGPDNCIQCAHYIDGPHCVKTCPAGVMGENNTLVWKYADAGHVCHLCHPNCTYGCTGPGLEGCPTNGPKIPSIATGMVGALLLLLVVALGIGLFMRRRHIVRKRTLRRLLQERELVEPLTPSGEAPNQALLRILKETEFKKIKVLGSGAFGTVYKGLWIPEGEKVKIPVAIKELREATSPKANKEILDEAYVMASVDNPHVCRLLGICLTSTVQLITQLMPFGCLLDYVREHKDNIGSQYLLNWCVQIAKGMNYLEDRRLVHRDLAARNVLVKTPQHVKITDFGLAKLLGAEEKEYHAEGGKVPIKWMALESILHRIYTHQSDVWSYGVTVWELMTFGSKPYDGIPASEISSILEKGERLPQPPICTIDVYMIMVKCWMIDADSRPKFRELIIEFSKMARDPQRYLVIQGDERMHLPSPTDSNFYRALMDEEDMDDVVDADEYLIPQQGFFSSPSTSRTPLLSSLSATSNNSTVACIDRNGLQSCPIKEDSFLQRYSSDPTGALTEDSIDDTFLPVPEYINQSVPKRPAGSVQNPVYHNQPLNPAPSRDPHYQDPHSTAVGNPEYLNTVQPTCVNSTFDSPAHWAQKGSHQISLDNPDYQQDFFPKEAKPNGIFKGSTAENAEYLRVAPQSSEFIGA
test: compounds binding epidermal growth factor receptor – biochemical, small-molecule microarray, 635 nm fluorescence, primary screen (AID 1104);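 note: score merges 667 nm emission intensity with spot signal to noise over triplicate slides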
test_settings: EGFR binding, higher = more signal
reported_property: composite z-score
Give the figure by itself; no unit, no explanation.

# input For the compound shown here, O=[N+]([O-])c1ccc(C[n+]2ccc(-c3ccc(CO)cc3)cc2)o1 , give the reported composite z-score.
# output 0.224

# input For the compound shown here, C[N+](C)(C)CCCCCCNC(=O)[C@@H]1C[C@@H]2C(=O)NCC(=O)N2[C@@H]1c1cccc(OCCO)c1 , give the reported composite z-score.
# output 0.144

# input For the compound shown here, C=CCC(OC(C)=O)[C@@H]1[C@@H](N(Cc2cc3ccccc3o2)C(=O)Cc2ccc(OC)cc2)c2cc(OCCCO)ccc2N1C(=O)c1ccc(-c2ccccc2)cc1 (some centres undefined) , give the reported composite z-score.
# output -0.426

# input For the compound shown here, Cc1ccc(S[C@]2(C(=O)NCc3ccccc3)CC(=O)N(C3Cc4ccccc4C3)[C@@H]2c2ccc(CO)cc2I)cc1 , give the reported composite z-score.
# output -0.807

* * *

test: COS7 lysate on small-molecule microarray, probe aHis, 635 nm (AID 1123);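 note: z-score combines 667nm fluorescence intensity with signal-to-noise per printed compound spot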
test_settings: COS7 cell lysate, fluorescence, higher = more signal
I would appreciate it if you labelled entries true when composite z-score is 2 or higher, otherwise false.

# input Could you verify whether the entry CC(C)NC(=O)[C@@]1(Cc2ccccc2I)c2ccccc2C(=O)N(Cc2ccccc2C(F)(F)F)[C@H]1c1ccc(CO)cc1 shows composite z-score of no less than 2?
# output false

# input Could you verify whether the entry CC(C)(C)N1CC=CC23O[C@@H]4C=CCCOC(=O)C4[C@H]2C(=O)N(CCCO)[C@@H]3C1=O (some centres not stated) shows composite z-score of no less than 2?
# output false

# input Could you verify whether the entry CC(C)N1CC=CC23O[C@@H]4C=CCOC(=O)[C@@H]4[C@H]2C(=O)N(CCCCCCO)[C@@H]3C1=O (some centres not stated) shows composite z-score of no less than 2?
# output false

# input Could you verify whether the entry CN(C)C(=O)[C@@]1(CCC(=O)OC(C)(C)C)N=C(c2ccc(OCCCO)cc2)O[C@H]1c1ccccc1N=[N+]=[N-] shows composite z-score of no less than 2?
# output true

# input Could you verify whether the entry [N-]=[N+]=NCc1ccccc1[C@H]1OC(c2ccc(OCCCO)cc2)=N[C@@]1(Cc1ccccc1N=[N+]=[N-])C(=O)N1CCCCC1 shows composite z-score of no less than 2?
# output true

# input Could you verify whether the entry COCCOC(=O)N1C(=O)[C@@]2(c3ccccc31)[C@H](c1ccc(OCCO)cc1)N1[C@H](c3ccccc3)[C@H](c3ccccc3)OC(=O)[C@H]1[C@@H]2C(=O)NC[C@H](O)c1ccccc1 shows composite z-score of no less than 2?
# output false

# input Could you verify whether the entry O=C1C2C=CC(C(O)c3ccc(Br)cc3)N(Nc3ccccc3)C2C(=O)N1c1ccccc1 (configuration not stated) shows composite z-score of no less than 2?
# output false

* * *

Please provide measured z-score for the entries that follow.
assayed_target: NADPH oxidase 5 (Homo sapiens)
test: compounds shifting NOX5 Amplex Red fluorescence – cell-based, HEK293-NOX5, NOX inhibitor project, primary screen (AID 1161)
test_settings: HEK293-NOX5, ionomycin, 45 min, higher = more signal

# input Hello, I am looking for reported z-score with NADPH oxidase 5 (Homo sapiens) for [N-]=[N+]=NCc1ccccc1C[C@@]1(C(=O)NCCN2CCOCC2)N=C(c2ccc(OCCCO)cc2)O[C@@H]1c1ccccc1CN=[N+]=[N-] . Could you help?
# output 2.24

# input Hello, I am looking for reported z-score with NADPH oxidase 5 (Homo sapiens) for COCCOC(=O)N1C(=O)[C@@]2(c3cc(C#CCCO)ccc31)[C@H](c1ccc(OCCO)cc1)N1[C@H](c3ccccc3)[C@H](c3ccccc3)OC(=O)[C@H]1[C@@H]2C(=O)N1CCc2cc(OC)c(OC)cc2C1 . Could you help?
# output 1.23

# input Hello, I am looking for reported z-score with NADPH oxidase 5 (Homo sapiens) for C[C@@]1([C@@H](NC(=O)c2cccs2)c2ccc(-c3ccccc3)cc2)C[C@H]1C1CCCCC1 . Could you help?
# output -1.59

# input Hello, I am looking for reported z-score with NADPH oxidase 5 (Homo sapiens) for O=C(CS)NCCCCCNC(=O)[C@@H]1C[C@@H]2C(=O)N3CCC[C@H]3C(=O)N2[C@@H]1c1ccc(O)cc1 . Could you help?
# output -0.651

# input Hello, I am looking for reported z-score with NADPH oxidase 5 (Homo sapiens) for C=CC[C@@]1(C(=O)NCC(O)CO)N=C(c2ccc(OCCCO)cc2)O[C@@H]1c1ccccc1 (stereo not given in full) . Could you help?
# output 1.69

# input Hello, I am looking for reported z-score with NADPH oxidase 5 (Homo sapiens) for CN(C)C(=O)[C@@]1(CCC(=O)OC(C)(C)C)COC(c2ccc(OCCCO)cc2)=N1 . Could you help?
# output 0.655

# input Hello, I am looking for reported z-score with NADPH oxidase 5 (Homo sapiens) for CC(C)=CCCC(C)=CC(O)C1C=CC2C(=O)N(c3ccccc3)C(=O)C2N1Nc1ccc([N+](=O)[O-])cc1 (stereo not given) . Could you help?
# output -0.516

# input Hello, I am looking for reported z-score with NADPH oxidase 5 (Homo sapiens) for CC1CC/C=C\[C@H]2OC34C=CCN(Cc5ccccc5)C(=O)[C@H]3N(CCO)C(=O)[C@@H]4C2C(=O)O1 (stereo not given in full) . Could you help?
# output 2.24

# input Hello, I am looking for reported z-score with NADPH oxidase 5 (Homo sapiens) for COC(=O)c1ccc(OC)c(/C=C\CC(CCc2ccccc2)OC(=O)c2ccncc2)c1 (stereo not given) . Could you help?
# output -0.11

# input Hello, I am looking for reported z-score with NADPH oxidase 5 (Homo sapiens) for CC(C)(C)N1CC=CC23O[C@@H]4C=CCCOC(=O)C4[C@H]2C(=O)N(CCCO)[C@@H]3C1=O (stereo not given in full) . Could you help?
# output -0.648

# input Hello, I am looking for reported z-score with NADPH oxidase 5 (Homo sapiens) for O=C(O)[C@]1(CCS(=O)(=O)c2ccccc2)N=C(c2ccc(OCCCO)cc2)O[C@@H]1c1ccccc1 . Could you help?
# output 1.1

# input Hello, I am looking for reported z-score with NADPH oxidase 5 (Homo sapiens) for NC(=O)NCC#Cc1ccc2c(c1)[C@]1(C(=O)N2)[C@H](c2ccc(OCCO)cc2)N2[C@H](c3ccccc3)[C@H](c3ccccc3)OC(=O)[C@H]2[C@@H]1C(=O)N1CCN(c2ncccn2)CC1 . Could you help?
# output 0.41

# input Hello, I am looking for reported z-score with NADPH oxidase 5 (Homo sapiens) for OCCCC1=CC(c2cccs2)N(Cc2cccc(OC(F)(F)F)c2)CC1 (stereo not given) . Could you help?
# output -1.11

# input Hello, I am looking for reported z-score with NADPH oxidase 5 (Homo sapiens) for COCCCNC(=O)[C@]1(Cc2ccccc2)N=C(c2ccc(OCCCO)cc2)O[C@@H]1c1ccccc1N=[N+]=[N-] . Could you help?
# output -2.21

# input Hello, I am looking for reported z-score with NADPH oxidase 5 (Homo sapiens) for COC(=O)[C@]1(Cc2ccccc2CN=[N+]=[N-])N=C(c2ccc(OCCCO)cc2)O[C@@H]1c1ccccc1 . Could you help?
# output -2.6
